- assay: Plasma concentration in db/db mouse at 5 mg/kg, po after 5 mins
- Assay type: ADME, organism-based
- Set-up: dose 5 mg/kg, route oral
- condition-notes: read-out: Drug uptake
Please provide measured concentration at 5 min for the entries that follow.
Answers are plain numbers, in ng/mL.

Some compounds with recorded concentration at 5 min:
cpd_smiles=CC(C)c1onc(-c2c(Cl)cccc2Cl)c1COc1ccc(N(C)Cc2ccc(C(=O)O)cc2)c(C(F)(F)F)n1 outcome_measure="concentration at 5 min" display_unit=ng/mL value=57
cpd_smiles=CN(Cc1ccc(C(=O)O)cc1)c1ccc(OCc2c(-c3c(Cl)cccc3Cl)noc2C2CC2)nc1C(F)(F)F outcome_measure="concentration at 5 min" display_unit=ng/mL value=427

We next turn to a different compound, shown below.
Problem: Entry CN(Cc1ccc(C(=O)NCCS(=O)(=O)O)cc1)c1ccc(OCc2c(-c3c(Cl)cccc3Cl)noc2C2CC2)nc1C(F)(F)F : reported concentration at 5 min = ?
Solution: 1
